# Test system: D-aminoacylase derived from Amycolatopsis orientalis IFO 12806
# protocol.details: Influences of various metallic salts and reagents on D-aminoacylase activity
# Format: biochemical
# condition.description: metallic salt 1 mM; pH 7.5, 30° C., 60 min; no addition 0.25
measure.name: Methionine produced, concentration 1 mM
Remember to quote the unit after the number.

Some entries whose results are on file:
compound=[Cl-].[Cl-].[Co+2] result="0.52 mM"
compound=[Cl-].[Cl-].[Mg+2] result="0.32 mM"
compound=[Cl][Cu][Cl] result="0 mM"
compound="[Cl][Fe][Cl] [F^e2+ (FeCl2), FeCl2]" result="0.13 mM"
compound=[Ba+2].[Cl-].[Cl-] result="0.19 mM"

Inquiry: So what's the measured Methionine produced, concentration 1 mM for this one? [Cl-].[Cl-].[Zn+2] [Zn^2+ (ZnCl2), ZnCl2]
Reply text: 0 mM

Inquiry: Name the recorded Methionine produced, concentration 1 mM for [Cl-].[K+] .
Reply text: 0.13 mM

Inquiry: Field request: Methionine produced, concentration 1 mM | item: [Cl][Hg][Cl]
Reply text: 0 mM

---

# Test system: D-aminoacylase derived from Amycolatopsis orientalis IFO 12806
# protocol.details: Influences of various metallic salts and reagents on D-aminoacylase activity
# Type: biochemical
# condition.description: metallic salt 10 mM; no addition = 100
Below, each entry is listed alongside its reported Specific activity (%), concentration 10 mM.
Numeric answer only, unit % assumed.

molecule=[Cl][Cu][Cl] unit_symbol=% quantitative_result=0

Inquiry: Reported Specific activity (%), concentration 10 mM, molecule [Ba+2].[Cl-].[Cl-] : ____
Reply text: 176

Inquiry: Can you share its Specific activity (%), concentration 10 mM? I mean this molecule: [Ca+2].[Cl-].[Cl-]
Reply text: 208

---

Reported Methionine produced, concentration 10 mM by item:
# Tested on: D-aminoacylase derived from Amycolatopsis orientalis IFO 12806
# protocol.details: Influences of various metallic salts and reagents on D-aminoacylase activity
# Format: biochemical
# condition.description: metallic salt 10 mM; pH 7.5, 30° C., 60 min; no addition 0.25
# value in mM; strip the unit string

For orientation, consider the following solved cases.
compound="[Cl-].[Cl-].[Zn+2] [Zn^2+ (ZnCl2), ZnCl2]" quantitative_result=0
compound=[Cl][Hg][Cl] quantitative_result=0
compound=[Cl][Mn][Cl] quantitative_result=0
compound=[Cl-].[Cl-].[Mg+2] quantitative_result=0.32
compound="[Cl][Fe][Cl] [F^e2+ (FeCl2), FeCl2]" quantitative_result=0
compound=[Ca+2].[Cl-].[Cl-] quantitative_result=0.52

Inquiry: Field request: Methionine produced, concentration 10 mM | item: [Cl][Ni][Cl]
Reply text: 0.17

Inquiry: I would be grateful if you could share the reported Methionine produced, concentration 10 mM for [Cl][Cu][Cl] .
Reply text: 0

Inquiry: Which Methionine produced, concentration 10 mM is listed for [Cl-].[K+] ?
Reply text: 0.21

Inquiry: Record request: Methionine produced, concentration 10 mM value, item [Cl-].[Cl-].[Co+2]
Reply text: 0.27

Inquiry: Which value of Methionine produced, concentration 10 mM has been reported for [Ba+2].[Cl-].[Cl-] in the records?
Reply text: 0.44

---

The entries below come with measured Specific activity (%) values attached.
# Tested on: D-aminoacylase derived from Amycolatopsis orientalis IFO 12806
# protocol.details: Substrate specificity of D-aminoacylase
# Assay type: biochemical
# condition.description: N-acetyl-D-methionine taken as 100%; 20 mM substrate, 50 mM Tris-HCl pH 7.5, 30° C., 3 h
Please state the figure in %; there is no need to write the unit.

smiles_representation=CC(=O)N[C@H](Cc1c[nH]c2ccccc12)C(=O)O tested_system="D-aminoacylase derived from Amycolatopsis orientalis IFO 12806" measure_name="Specific activity (%)" quantitative_result=54
smiles_representation=CC(=O)N[C@@H](C(=O)O)C(C)C tested_system="D-aminoacylase derived from Amycolatopsis orientalis IFO 12806" measure_name="Specific activity (%)" quantitative_result=33
smiles_representation=CC(=O)N[C@H](C)C(=O)O tested_system="D-aminoacylase derived from Amycolatopsis orientalis IFO 12806" measure_name="Specific activity (%)" quantitative_result=16
smiles_representation=CC(=O)N[C@H](C(=O)O)C(C)C tested_system="D-aminoacylase derived from Amycolatopsis orientalis IFO 12806" measure_name="Specific activity (%)" quantitative_result=0
smiles_representation=CC(=O)N[C@H](CC(C)C)C(=O)O tested_system="D-aminoacylase derived from Amycolatopsis orientalis IFO 12806" measure_name="Specific activity (%)" quantitative_result=78

Inquiry: Could you tell me which Specific activity (%) is on file for CC(=O)N[C@H](CC(N)=O)C(=O)O ?
Reply text: 19

Inquiry: Value lookup for Specific activity (%); key = CSCC[C@@H](NC(C)=O)C(=O)O
Reply text: 100

Inquiry: Item under review: CC(=O)N[C@@H](CC(C)C)C(=O)O . Reported Specific activity (%)?
Reply text: 0

Inquiry: Which measured Specific activity (%) value corresponds to CSCC[C@H](NC(C)=O)C(=O)O ?
Reply text: 0

Inquiry: GET /values?readout=Specific activity (%)&item= CC(=O)N[C@H](Cc1ccccc1)C(=O)O
Reply text: 36

---

# System: D-aminoacylase derived from Amycolatopsis orientalis IFO 12806
# protocol.details: Substrate specificity of D-aminoacylase
# Format: biochemical
# condition.description: 20 mM substrate, pH 7.5, 30° C., 3 h
measure.name: Action of the enzyme on the substrate

smiles_representation=CC(=O)N[C@H](Cc1ccccc1)C(=O)O tested_system="D-aminoacylase derived from Amycolatopsis orientalis IFO 12806" measure_name="Action of the enzyme on the substrate" result="acted somewhat"
smiles_representation=CC(=O)N[C@H](CC(N)=O)C(=O)O tested_system="D-aminoacylase derived from Amycolatopsis orientalis IFO 12806" measure_name="Action of the enzyme on the substrate" result="acted somewhat"

---

# Tested on: D-aminoacylase derived from Amycolatopsis orientalis IFO 12806
# protocol.details: Influences of various metallic salts and reagents on D-aminoacylase activity
# Format: biochemical
# condition.description: metallic salt 1 mM; no addition = 100
measure.name: Specific activity (%), concentration 1 mM
Only the number, expressed in %, is required.

compound="[Cl][Mn][Cl] [Mn^2+ (MnCl2), MnCl2]" quantitative_result=96

Turning to the following compound.
Inquiry: Which Specific activity (%), concentration 1 mM is reported for this compound? [Cl][Cu][Cl] [Cu^2+ (CuCl2), CuCl2]
Reply text: 0

---

# Test system: D-aminoacylase derived from Amycolatopsis orientalis IFO 12806
# protocol.details: Influences of various metallic salts and reagents on D-aminoacylase activity
# Format: biochemical
# condition.description: metallic salt 1 mM; pH 7.5, 30° C., 60 min; no addition 0.25
measure.name: Methionine produced, concentration 1 mM
Express the reported value numerically, then name its unit.

# example entries with known answers
smiles_representation=[Ca+2].[Cl-].[Cl-] measure_name="Methionine produced, concentration 1 mM" result="0.45 mM"
smiles_representation=[Cl][Mn][Cl] measure_name="Methionine produced, concentration 1 mM" result="0.24 mM"

Inquiry: What does the record list as Methionine produced, concentration 1 mM for [Cl][Ni][Cl] ?
Reply text: 0.12 mM

---

# Lookup of reported Specific activity (%), concentration 10 mM keyed by entry
# System: D-aminoacylase derived from Amycolatopsis orientalis IFO 12806
# protocol.details: Influences of various metallic salts and reagents on D-aminoacylase activity
# Type: biochemical
# condition.description: metallic salt 10 mM; no addition = 100
Report only the number, with the unit % understood.

compound="[Cl][Fe][Cl] [F^e2+ (FeCl2), FeCl2]" quantitative_result=0
compound="[Cl][Ni][Cl] [Ni^2+ (NiCl2), NiCl2]" quantitative_result=68
compound="[Cl][Hg][Cl] [Hg^2+ (HgCl2), HgCl2]" quantitative_result=0
compound="[Cl-].[K+] [K^+ (KCl), KCl]" quantitative_result=84
compound="[Cl-].[Cl-].[Co+2] [Co^2+ (CoCl2), CoCl2]" quantitative_result=108
compound="[Cl][Mn][Cl] [Mn^2+ (MnCl2), MnCl2]" quantitative_result=0
compound="[Cl-].[Cl-].[Zn+2] [Zn^2+ (ZnCl2), ZnCl2]" quantitative_result=0

Next item in the queue.
Inquiry: Find the recorded Specific activity (%), concentration 10 mM belonging to [Cl-].[Cl-].[Mg+2] [Mg^2+ (MgCl2), MgCl2] and report it.
Reply text: 92

---

# System: D-aminoacylase derived from Amycolatopsis orientalis IFO 12806
# protocol.details: Influences of various metallic salts and reagents on D-aminoacylase activity
# Format: biochemical
# condition.description: metallic salt 1 mM; no addition = 100
measure.name: Specific activity (%), concentration 1 mM
Output spec: scalar in %, unitless text.

compound="[Cl-].[Cl-].[Co+2] [Co^2+ (CoCl2), CoCl2]" unit_symbol=% quantitative_result=208
compound="[Cl-].[Cl-].[Mg+2] [Mg^2+ (MgCl2), MgCl2]" unit_symbol=% quantitative_result=128

Inquiry: I am curious: what Specific activity (%), concentration 1 mM value has been reported for [Cl][Hg][Cl] [Hg^2+ (HgCl2), HgCl2] ?
Reply text: 0

Inquiry: Quick check: Specific activity (%), concentration 1 mM of [Ca+2].[Cl-].[Cl-] [Ca^2+ (CaCl2), CaCl2] ?
Reply text: 180

Inquiry: Could you tell me which Specific activity (%), concentration 1 mM is on file for [Cl][Ni][Cl] [Ni^2+ (NiCl2), NiCl2] ?
Reply text: 48

Inquiry: Which value of Specific activity (%), concentration 1 mM has been reported for [Cl][Fe][Cl] [F^e2+ (FeCl2), FeCl2] in the records?
Reply text: 52

Inquiry: Endpoint output: Specific activity (%), concentration 1 mM of [Cl-].[K+] [K^+ (KCl), KCl] . Value?
Reply text: 52

Inquiry: Please report the recorded Specific activity (%), concentration 1 mM for [Cl-].[Cl-].[Zn+2] [Zn^2+ (ZnCl2), ZnCl2] .
Reply text: 0
